Target: T1, PARP4 BRCT-WGR-CAT (Homo sapiens, UniProt Q9UKK3 1-573)
T1 sequence: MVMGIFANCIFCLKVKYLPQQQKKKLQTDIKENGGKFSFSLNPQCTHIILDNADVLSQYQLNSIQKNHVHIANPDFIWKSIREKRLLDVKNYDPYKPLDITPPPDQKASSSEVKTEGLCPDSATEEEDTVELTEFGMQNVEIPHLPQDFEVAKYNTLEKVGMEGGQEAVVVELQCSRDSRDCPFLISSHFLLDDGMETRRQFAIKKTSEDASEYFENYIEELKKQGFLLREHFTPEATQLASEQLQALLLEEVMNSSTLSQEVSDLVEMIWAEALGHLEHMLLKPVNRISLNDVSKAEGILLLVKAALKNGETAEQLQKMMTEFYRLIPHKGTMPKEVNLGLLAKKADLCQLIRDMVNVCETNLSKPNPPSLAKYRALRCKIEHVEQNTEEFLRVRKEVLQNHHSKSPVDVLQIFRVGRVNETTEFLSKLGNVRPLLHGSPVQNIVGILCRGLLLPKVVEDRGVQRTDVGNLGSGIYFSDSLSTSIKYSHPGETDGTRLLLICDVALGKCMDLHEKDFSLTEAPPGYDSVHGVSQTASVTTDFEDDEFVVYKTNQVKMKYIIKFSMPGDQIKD
Test: EMSA; 100 nM RNA; apparent Kd; FP: 50 mM Tris pH 7.5, 50 mM NaCl, 0.05% NP40, 2 mM DTT, 5% glycerol, room temperature 30 min; EMSA: same but 20% glycerol, 100 nM nucleic acid, room temperature 30 min, gel at 4 C in Tris-glycine
Conditions: protein: recombinant; tags: N-terminal His-SUMO tag, cleaved with TEV; label: none (SYBR Gold stain); Mfold secondary structure, annealed
property_measured: pKd
Give only the number. pKd is defined as minus log10 of concentration in molar units.

Item under review: HDV ribozyme RNA (84 nt) (structured_RNA) RNA: GCCGGCCAUGGUCCCAGCCUCCUCGCUGGCGGCCGGUGGGCAACAUUCCGAGGGGACCGUCCCUCGGUAAUGGCGAAUGGGACA . Reported pKd? 5.47
